# experimental.protocol: reduced viability of parasite-Hsp90 expressing yeast – ATP luminescence, 48 h, cherry-picked samples, anti-malarial Hsp90 inhibitor project, dose response (AID 540268);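 further: 0% = neutral control wells and -100% = positive control wells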
# condition.description: yeast expressing the parasite Hsp90, ATP luminescence, at 26 µM (top of the series)
assay.readout: activity change, negative = inhibition (%)
I only need the number, in %, no unit after it.

Using the record for "CN(C)c1ccc(-c2cc(O)c3ncccc3c2)cc1" , report its activity change, negative = inhibition. 26.4

Any idea what activity change, negative = inhibition was measured for "O=C1C=CC(=O)N1Cc1ccccc1" ? 21.3

Which activity change, negative = inhibition is reported for this compound? "N/C(Cc1ccc(Cl)c(Cl)c1)=N\OC(=O)c1ccc(Br)o1" 66.7

Name the recorded activity change, negative = inhibition for "O=C(CSc1ccc(-c2ccccn2)nn1)Nc1ccccc1" . -18.1

I have this compound here, "Cc1cc(/C=c2\sc3nc4ccccc4n3c2=O)c(C)n1-c1ccc(C(=O)O)cc1" , and I need its recorded activity change, negative = inhibition. 22.6

Return reported activity change, negative = inhibition; argument: "Cc1cccc(NC(=S)N/N=C/c2ccc([N+](=O)[O-])s2)c1" -14.3

###

# experimental.protocol: reduced viability of parasite-Hsp90 expressing yeast – ATP luminescence, 48 h, cherry-picked samples, anti-malarial Hsp90 inhibitor project, dose response (AID 540268);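 further: 0% = neutral control wells and -100% = positive control wells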
# condition.description: yeast expressing the parasite Hsp90, ATP luminescence, at 26 µM (top of the series)
Kindly state activity change, negative = inhibition for each of the entries shown.
Numeric answer only, unit % assumed.

Could you tell me which activity change, negative = inhibition is on file for "O=C(/C(=C\c1ccccc1)c1nc2ccccc2[nH]1)c1ccc(Cl)cc1" ? -31.8

Entry under review: "CC(C)(C)c1nn(-c2ccccc2)c2[nH]c(=O)c(CNc3ccc4c(c3)OCCO4)cc12" . Reported activity change, negative = inhibition? -106

// query activity change, negative = inhibition value for entry "O=C1C(=C(I)I)c2ccccc2-c2ccccc21" 26.6

activity change, negative = inhibition for "Cc1ccc2nc(-c3ccc(NS(=O)(=O)c4ccc(F)cc4)cc3)sc2c1" ? 144

Which value of activity change, negative = inhibition has been reported for "CCCCN1C(=O)/C(=C/C=C2\Oc3ccccc3N2CC)SC1=S" in the records? 32.9
